# TESTED_ON: Thyrotropin receptor (Homo sapiens) (UniProt P16473)
# Sequence (P16473 whole entry, looked up): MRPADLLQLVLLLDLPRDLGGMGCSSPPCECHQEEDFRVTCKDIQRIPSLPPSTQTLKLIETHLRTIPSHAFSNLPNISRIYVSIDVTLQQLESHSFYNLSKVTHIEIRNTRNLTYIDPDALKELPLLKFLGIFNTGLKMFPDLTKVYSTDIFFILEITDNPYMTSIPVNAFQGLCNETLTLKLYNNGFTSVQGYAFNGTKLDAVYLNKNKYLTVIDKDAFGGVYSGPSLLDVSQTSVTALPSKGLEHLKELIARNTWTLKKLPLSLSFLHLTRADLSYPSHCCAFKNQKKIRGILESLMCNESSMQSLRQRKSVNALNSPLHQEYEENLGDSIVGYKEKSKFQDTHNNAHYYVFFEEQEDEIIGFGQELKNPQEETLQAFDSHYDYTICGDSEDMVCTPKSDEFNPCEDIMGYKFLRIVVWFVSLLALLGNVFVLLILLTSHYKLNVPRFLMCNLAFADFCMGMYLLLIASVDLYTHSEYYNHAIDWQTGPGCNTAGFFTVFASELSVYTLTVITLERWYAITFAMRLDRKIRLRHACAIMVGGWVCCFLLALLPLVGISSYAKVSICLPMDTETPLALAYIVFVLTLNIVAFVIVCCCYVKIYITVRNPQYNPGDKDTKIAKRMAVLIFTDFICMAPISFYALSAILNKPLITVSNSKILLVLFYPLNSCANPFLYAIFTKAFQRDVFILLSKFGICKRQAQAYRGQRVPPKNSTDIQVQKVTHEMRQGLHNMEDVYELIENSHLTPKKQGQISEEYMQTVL
# PROTOCOL: qHTS assay to identify small molecule antagonists of the thyroid stimulating hormone receptor (TSHR) signaling pathway (AID 1259385); further: nearly all actives have a fitted effect of over 20% in size
# ASSAY_CONDITIONS: TSHR-HEK293 cAMP HTRF, TSH-stimulated antagonist mode; series mostly up to 92.4 µM
Inconclusive results are not listed. Active and inactive are the calls of the source. The call rests on the fitted dose curve.
Give one outcome, nothing more. List: active, inactive

Before answering, review these 3 worked examples.
- MOLECULE: "N#CC1(c2ccc(F)cc2)CCC(=O)CC1"
  ASSIGNED_CLASS: "inactive"
- MOLECULE: "CCCCCCCCOC(=O)c1ccc(O)cc1"
  ASSIGNED_CLASS: "inactive"
- MOLECULE: "CN1CCC(Nc2ncc3ncnc(Nc4ccc(F)c(Cl)c4)c3n2)CC1"
  ASSIGNED_CLASS: "active"

### Prompt Write down the call the test reported for this molecule. Item: `CCN(Cc1cccnc1)C(=O)c1cccc(Cl)c1[C@]1(C)C(=O)N(Cc2ccc(OC)cc2OC)c2ccc(Cl)cc21`
### Response inactive

### Prompt Further, for `CC(C)(C)CC(C)(C)c1ccc(OCCOCC[N+](C)(C)Cc2ccccc2)cc1` ?
### Response inactive

### Prompt Ok, now `Nc1nc2ccccc2n1Cc1ccc(F)cc1`
### Response inactive

### Prompt Also, `O=C1CCCc2c1cc1ccc3cccc4ccc2c1c34` please.
### Response inactive

### Prompt Next molecule: `COCCCC/C(=N\OCCN)c1ccc(C(F)(F)F)cc1`
### Response active

### Prompt Again, but for `C=CC(=O)OCCn1c(=O)n(CCOC(=O)C=C)c(=O)n(CCOC(=O)C=C)c1=O`
### Response inactive

### Prompt Then `CCCCN(CCCC)c1ccc(C(=O)c2ccccc2C(=O)O)c(O)c1` ?
### Response inactive

### Prompt Try `NC(=NCCCCCCN=C(N)/N=C(\N)Nc1ccc(Cl)cc1)/N=C(\N)Nc1ccc(Cl)cc1` next.
### Response inactive

### Prompt What do we get for `CCOC(=O)c1nc(C(Cl)(Cl)Cl)n(-c2ccc(Cl)cc2Cl)n1` ?
### Response inactive

### Prompt Now the molecule `Cc1cc(=O)oc2cc(N(C)C)ccc12`
### Response inactive

### Prompt Similarly, `CSc1cnc(C)cn1` ?
### Response inactive

### Prompt Check CC(C)OC(=O)c1cc2c(OCC(O)CNC(C)(C)C)cccc2[nH]1 (stereo not drawn) too.
### Response inactive
